Entry source: patent US9645128B2

Tested on: Gaussia luciferase
Procedure Summary: Substrate specificity, luminescence activity and emission spectra of Gaussia luciferase
Experimental Context: Gaussia luciferase; coelenterazine = 100.0
Could you please report measured Luminescence activity Imax (%) for the items listed next?
Answers are plain numbers, in %.

Please review the following examples before continuing.
>>> print(df.to_string())
                                   molecule  reading_unit  test_result
0  Oc1ccc(-c2cn3c(O)c(Cc4ccccc4)nc3c(Cc3ccccc3)n2)cc1 [h-CTZ, h-coelenterazine, reference compound]             %          5.8
1  O=c1c(Cc2cccc(O)c2)nc2c(Cc3ccccc3)[nH]c(-c3ccc(O)cc3)cn1-2             %         14.3
2  Cc1ccc(Cc2nc3c(Cc4ccccc4)[nH]c(-c4ccc(O)cc4)cn-3c2=O)cc1             %          4.5
3  COc1ccc(Cc2nc3c(Cc4ccccc4)[nH]c(-c4ccc(O)cc4)cn-3c2=O)cc1             %         13.6
4  COc1cccc(Cc2nc3c(Cc4ccccc4)[nH]c(-c4ccc(O)cc4)cn-3c2=O)c1             %          3.8
5  Cc1cccc(Cc2nc3c(Cc4ccccc4)[nH]c(-c4ccc(O)cc4)cn-3c2=O)c1             %          2.6

# input for lookup
GET /value?item= O=c1c(Cc2ccc(C(F)(F)F)cc2)nc2c(Cc3ccccc3)[nH]c(-c3ccc(O)cc3)cn1-2 &field=Luminescence activity Imax (%) returns 0.8

====

Could you please report measured Luminescence activity Imax (%) for the items listed next?
Assayed System: Renilla luciferase (Renilla reniformis, UniProt P27652)
Construct: made in house
Sequence (P27652 whole entry): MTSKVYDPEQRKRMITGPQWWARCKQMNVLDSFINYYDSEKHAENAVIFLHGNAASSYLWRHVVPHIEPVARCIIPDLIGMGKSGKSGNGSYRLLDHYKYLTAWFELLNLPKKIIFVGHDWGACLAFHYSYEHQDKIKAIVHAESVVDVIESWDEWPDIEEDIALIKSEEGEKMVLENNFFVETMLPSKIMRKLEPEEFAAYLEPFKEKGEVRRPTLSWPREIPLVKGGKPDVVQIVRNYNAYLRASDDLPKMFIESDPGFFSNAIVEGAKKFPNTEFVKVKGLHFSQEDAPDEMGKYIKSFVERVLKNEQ
Procedure Summary: Substrate specificity, luminescence activity and emission spectra of Renilla luciferase
Assay type: biochemical
Experimental Context: Renilla luciferase; coelenterazine = 100.0
Note to self: number, then unit, no commentary.

Please review the following examples before continuing.
In [3]: df
Out[3]:
                                   compound  test_result
0  Cc1ccc(Cc2nc3c(Cc4ccccc4)[nH]c(-c4ccc(O)cc4)cn-3c2=O)cc1         6.6%
1  Oc1ccc(-c2cn3c(O)c(Cc4ccccc4)nc3c(Cc3ccccc3)n2)cc1 [h-CTZ, h-coelenterazine, reference compound]        78.6%
2  COc1cccc(Cc2nc3c(Cc4ccccc4)[nH]c(-c4ccc(O)cc4)cn-3c2=O)c1        26.0%

# batch: return Luminescence activity Imax (%) for each of the 4 compounds below
1. CC(c1ccccc1)c1nc2c(Cc3ccccc3)[nH]c(-c3ccc(O)cc3)cn-2c1=O (centres unmarked)
2. O=c1c(Cc2cccc(O)c2)nc2c(Cc3ccccc3)[nH]c(-c3ccc(O)cc3)cn1-2
3. O=c1c(Cc2ccc(C(F)(F)F)cc2)nc2c(Cc3ccccc3)[nH]c(-c3ccc(O)cc3)cn1-2
4. COc1ccc(Cc2nc3c(Cc4ccccc4)[nH]c(-c4ccc(O)cc4)cn-3c2=O)cc1

1: 0.0%; 2: 25.7%; 3: 0.8%; 4: 8.0%

GET /value?item= Cc1cccc(Cc2nc3c(Cc4ccccc4)[nH]c(-c4ccc(O)cc4)cn-3c2=O)c1 &field=Luminescence activity Imax (%) returns 12.7%

====

Could you please report measured Luminescence capacity 10 secs. (%) for the items listed next?
Assayed System: Renilla luciferase (Renilla reniformis, UniProt P27652)
Construct: made in house
Procedure Summary: Substrate specificity, luminescence activity and emission spectra of Renilla luciferase
Format: biochemical
Experimental Context: Renilla luciferase; coelenterazine = 100.0
One number for each entry, in %.

Please review the following examples before continuing.
                                   compound  test_result
0  COc1ccc(Cc2nc3c(Cc4ccccc4)[nH]c(-c4ccc(O)cc4)cn-3c2=O)cc1 [meo-CTZ, meo-coelenterazine]          8.6
1  Cc1cccc(Cc2nc3c(Cc4ccccc4)[nH]c(-c4ccc(O)cc4)cn-3c2=O)c1 [3me-CTZ, 3me-coelenterazine]         13.1
2  O=c1c(Cc2ccc(C(F)(F)F)cc2)nc2c(Cc3ccccc3)[nH]c(-c3ccc(O)cc3)cn1-2 [cf3-CTZ, cf3-coelenterazine]          0.8

# batch: return Luminescence capacity 10 secs. (%) for each of the 4 compounds below
1. CC(c1ccccc1)c1nc2c(Cc3ccccc3)[nH]c(-c3ccc(O)cc3)cn-2c1=O (centres unmarked) [αmeh-CTZ, αmeh-coelenterazine]
2. O=c1c(Cc2cccc(O)c2)nc2c(Cc3ccccc3)[nH]c(-c3ccc(O)cc3)cn1-2 [3iso-CTZ, 3-isocoelenterazine]
3. Oc1ccc(-c2cn3c(O)c(Cc4ccccc4)nc3c(Cc3ccccc3)n2)cc1 [h-CTZ, h-coelenterazine, reference compound]
4. COc1cccc(Cc2nc3c(Cc4ccccc4)[nH]c(-c4ccc(O)cc4)cn-3c2=O)c1 [3meo-CTZ, 3meo-coelenterazine]

[0.0, 27.5, 90.3, 31.6]

GET /value?item= Cc1ccc(Cc2nc3c(Cc4ccccc4)[nH]c(-c4ccc(O)cc4)cn-3c2=O)cc1 [me-CTZ, me-coelenterazine] &field=Luminescence capacity 10 secs. (%) returns 7.0
